B1: Pistol ribozyme (parent)
chain: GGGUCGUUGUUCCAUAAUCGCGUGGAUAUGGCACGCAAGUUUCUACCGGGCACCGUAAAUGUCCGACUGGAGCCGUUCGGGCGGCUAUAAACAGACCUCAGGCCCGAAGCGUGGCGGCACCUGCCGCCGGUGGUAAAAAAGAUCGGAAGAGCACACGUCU

# Variants of: B1
# procedure.text: aptazyme ON/OFF ratio, guanine; higher = stronger switching; co-transcriptional cleavage with and without guanine
quantity: aptazyme ON/OFF ratio
// no unit, no text: just the number

U7G G9U U11C C12U C13A: 1.37

Kindly consider the entry below.
**Q:** Item U7A U10G U11G C12A C13G : provide aptazyme ON/OFF ratio
**A:** 1.16
